target: 3T3-L1 adipocytes (Mus musculus, UniProt P16092+Q99N32); assay: Glucose uptake in 3T3-L1 adipocytes; type: cell-based; settings: stimulated 20 hours, 3H-deoxy-glucose
Sequence (Q99N32 whole entry): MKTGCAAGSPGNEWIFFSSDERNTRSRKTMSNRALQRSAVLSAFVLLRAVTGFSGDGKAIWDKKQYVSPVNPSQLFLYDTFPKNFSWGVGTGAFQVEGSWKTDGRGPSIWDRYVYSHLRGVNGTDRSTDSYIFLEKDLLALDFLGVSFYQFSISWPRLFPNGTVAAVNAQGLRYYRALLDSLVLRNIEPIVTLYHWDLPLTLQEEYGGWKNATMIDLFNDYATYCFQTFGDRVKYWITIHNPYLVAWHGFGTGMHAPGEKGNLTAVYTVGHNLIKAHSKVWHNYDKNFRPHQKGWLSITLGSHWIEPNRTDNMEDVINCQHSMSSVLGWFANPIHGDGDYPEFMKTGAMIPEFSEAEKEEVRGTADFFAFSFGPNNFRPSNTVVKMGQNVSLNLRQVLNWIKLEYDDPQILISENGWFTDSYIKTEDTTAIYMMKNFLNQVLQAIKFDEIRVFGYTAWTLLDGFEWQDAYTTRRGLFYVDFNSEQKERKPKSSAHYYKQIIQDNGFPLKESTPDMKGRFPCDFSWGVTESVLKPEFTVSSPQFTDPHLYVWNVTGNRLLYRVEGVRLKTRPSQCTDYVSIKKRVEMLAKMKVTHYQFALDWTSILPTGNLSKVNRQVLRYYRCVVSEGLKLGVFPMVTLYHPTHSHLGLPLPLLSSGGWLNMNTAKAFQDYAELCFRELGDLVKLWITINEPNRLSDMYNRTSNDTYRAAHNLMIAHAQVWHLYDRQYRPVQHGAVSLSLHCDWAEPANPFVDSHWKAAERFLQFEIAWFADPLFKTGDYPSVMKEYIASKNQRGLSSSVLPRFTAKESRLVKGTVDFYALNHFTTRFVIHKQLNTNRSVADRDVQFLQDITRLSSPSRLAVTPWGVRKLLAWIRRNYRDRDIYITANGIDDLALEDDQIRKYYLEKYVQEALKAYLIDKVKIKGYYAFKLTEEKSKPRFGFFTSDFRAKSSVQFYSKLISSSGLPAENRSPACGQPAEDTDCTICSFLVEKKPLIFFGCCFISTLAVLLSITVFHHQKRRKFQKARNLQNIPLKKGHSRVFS
Sequence (P16092 22-822): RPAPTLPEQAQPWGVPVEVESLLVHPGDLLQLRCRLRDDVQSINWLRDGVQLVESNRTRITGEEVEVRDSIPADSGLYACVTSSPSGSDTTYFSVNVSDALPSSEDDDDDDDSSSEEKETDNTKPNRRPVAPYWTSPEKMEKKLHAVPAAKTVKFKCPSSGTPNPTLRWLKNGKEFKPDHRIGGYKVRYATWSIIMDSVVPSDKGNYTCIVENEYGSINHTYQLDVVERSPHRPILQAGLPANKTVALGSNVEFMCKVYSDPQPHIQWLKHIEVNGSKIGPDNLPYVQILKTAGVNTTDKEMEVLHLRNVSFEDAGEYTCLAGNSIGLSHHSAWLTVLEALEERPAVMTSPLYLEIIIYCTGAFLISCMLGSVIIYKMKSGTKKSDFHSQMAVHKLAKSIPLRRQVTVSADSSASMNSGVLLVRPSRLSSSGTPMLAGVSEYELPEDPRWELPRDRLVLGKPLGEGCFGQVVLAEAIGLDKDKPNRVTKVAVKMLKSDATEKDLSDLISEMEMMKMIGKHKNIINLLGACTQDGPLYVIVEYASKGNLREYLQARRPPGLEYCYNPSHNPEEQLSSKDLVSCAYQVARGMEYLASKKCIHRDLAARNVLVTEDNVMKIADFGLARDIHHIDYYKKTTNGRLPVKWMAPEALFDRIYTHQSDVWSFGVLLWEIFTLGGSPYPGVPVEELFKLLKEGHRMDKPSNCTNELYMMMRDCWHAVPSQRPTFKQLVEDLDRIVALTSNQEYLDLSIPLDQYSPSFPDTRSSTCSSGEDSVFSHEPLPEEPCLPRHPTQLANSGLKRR
Property measured: pEC50
Kindly note that pEC50 refers to -log10 of the concentration in mol/L and answer with the value alone.

{"Molecule": "S{Beta-180}-[2-[2-[[2-[2-[2-[[2-[2-[2-[[(4S)-4-carboxy-4-(13-carboxytridecanoyl-amino)butanoyl]amino]ethoxy]ethoxy]acetyl]amino]ethoxy]ethoxy]acetyl]amino]-ethylamino]-2-oxoethyl]-Ala[Gln121,Leu168,Cy … (protein) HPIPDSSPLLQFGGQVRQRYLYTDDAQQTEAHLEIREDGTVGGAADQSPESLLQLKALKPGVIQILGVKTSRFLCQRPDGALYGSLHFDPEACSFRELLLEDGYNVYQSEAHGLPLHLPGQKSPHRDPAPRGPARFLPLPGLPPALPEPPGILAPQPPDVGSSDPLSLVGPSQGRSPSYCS", "Value observed": 8.17}
{"Molecule": "S{Beta-180}-2-aminoethylsulfanyl-Ala[Gln121, Leu168, Cys180, des181]FGF21 (protein, N-terminal Ala; cysteamine disulfide on Cys180) AHPIPDSSPLLQFGGQVRQRYLYTDDAQQTEAHLEIREDGTVGGAADQSPESLLQLKALKPGVIQILGVKTSRFLCQRPDGALYGSLHFDPEACSFRELLLEDGYNVYQSEAHGLPLHLPGQKSPHRDPAPRGPARFLPLPGLPPALPEPPGILAPQPPDVGSSDPLSLVGPSQGRSPSYC", "Value observed": 7.14}
{"Molecule": "S{Beta-181}-[2-[2-[[2-[2-[2-[[2-[2-[2-[[(4S)-4-carboxy-4-(15-carboxypentadecanoyl-amino)butanoyl]amino]ethoxy]ethoxy]acetyl]amino]ethoxy]ethoxy]acetyl]amino]-ethylamino]-2-oxoethyl]-Ala[Gln121,Leu168, … (protein) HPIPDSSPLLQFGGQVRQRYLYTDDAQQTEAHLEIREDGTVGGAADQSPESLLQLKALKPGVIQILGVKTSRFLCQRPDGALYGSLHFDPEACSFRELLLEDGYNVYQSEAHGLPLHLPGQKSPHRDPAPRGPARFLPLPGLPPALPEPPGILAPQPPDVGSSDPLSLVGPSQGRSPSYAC", "Value observed": 7.51}
{"Molecule": "S{Beta-180}-[2-[2-[[2-[2-[2-[[2-[2-[2-[[(4S)-4-carboxy-4-(17-carboxyheptadecanoyl-amino)butanoyl]amino]ethoxy]ethoxy]acetyl]amino]ethoxy]ethoxy]acetyl]amino]-ethylamino]-2-oxoethyl]-Ala[Gln121,Leu168, … (protein) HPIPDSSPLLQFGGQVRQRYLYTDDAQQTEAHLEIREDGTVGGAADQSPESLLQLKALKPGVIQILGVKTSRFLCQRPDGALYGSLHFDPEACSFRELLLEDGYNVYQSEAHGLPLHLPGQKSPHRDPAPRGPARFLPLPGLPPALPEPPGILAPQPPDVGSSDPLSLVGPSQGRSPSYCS", "Value observed": 7.49}
{"Molecule": "Ala[Gln121, Leu168]FGF21 (protein, N-terminal Ala) AHPIPDSSPLLQFGGQVRQRYLYTDDAQQTEAHLEIREDGTVGGAADQSPESLLQLKALKPGVIQILGVKTSRFLCQRPDGALYGSLHFDPEACSFRELLLEDGYNVYQSEAHGLPLHLPGQKSPHRDPAPRGPARFLPLPGLPPALPEPPGILAPQPPDVGSSDPLSLVGPSQGRSPSYAS", "Value observed": 8.51}
{"Molecule": "S{Beta-180}-[2-[2-[[2-[2-[2-[[2-[2-[2-[[(4S)-4-carboxy-4-(11-carboxyundecanoyl-amino)butanoyl]amino]ethoxy]ethoxy]acetyl]amino]ethoxy]ethoxy]acetyl]amino]-ethylamino]-2-oxoethyl]-Ala[Gln121,Leu168,Cys … (protein) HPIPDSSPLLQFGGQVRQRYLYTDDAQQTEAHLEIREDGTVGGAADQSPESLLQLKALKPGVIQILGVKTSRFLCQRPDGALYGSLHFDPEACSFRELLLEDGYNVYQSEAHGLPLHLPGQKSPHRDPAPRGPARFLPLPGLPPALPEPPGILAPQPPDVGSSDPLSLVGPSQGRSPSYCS", "Value observed": 8.57}

Note: attention shifts to another entry.
Looking for the measured pEC50 of S{Beta-181}-[2-[2-[[2-[2-[2-[[2-[2-[2-[[(4S)-4-carboxy-4-(17-carboxyheptadecanoyl-amino)butanoyl]amino]ethoxy]ethoxy]acetyl]amino]ethoxy]ethoxy]acetyl]amino]-ethylamino]-2-oxoethyl]-Ala[Gln121,Leu168, … (protein) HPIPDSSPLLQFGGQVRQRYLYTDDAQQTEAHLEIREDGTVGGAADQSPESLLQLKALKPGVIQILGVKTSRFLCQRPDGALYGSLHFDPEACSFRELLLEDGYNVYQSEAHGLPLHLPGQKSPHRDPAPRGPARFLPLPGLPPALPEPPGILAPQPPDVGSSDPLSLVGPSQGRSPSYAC , can you help? 7.25

src = patent US20170182124A1
